Reported IC50 growth inhibition values are given for each entry in this list.
# Test system: Pseudomonas fluorescens FW300-N2E2
# measurementContext: medium / electron acceptor: N2E2 Glucose/aerobic 0.25xMinerals
Give your result in µM as a bare value.

// known answers, use as guide
{"compound": "[O-][I+2]([O-])O [sodium iodate]", "numericReadout": 2750}
{"compound": "O.O.O.O.O.O.[Al+3].[Cl-].[Cl-].[Cl-] [Aluminum chloride hydrate]", "numericReadout": 409}
{"compound": "[Cl][Pb][Cl] [lead (II) chloride]", "numericReadout": 38}
{"compound": "O.O.O.O.O=S(=O)([O-])[O-].[Be+2] [beryllium sulfate tetrahydrate]", "numericReadout": 1550}
{"compound": "O=P[O-].[Na+] [Sodium hypophosphite monohydrate]", "numericReadout": 451000}

Exercise: Lab note: need IC50 growth inhibition for O=P(O)(O)OP(=O)(O)O [Sodium pyrophosphate dibasic] on Pseudomonas fluorescens FW300-N2E2, anyone have it?
Key: 848

Exercise: Next record, please: [Na+].[O]=[V](=[O])[O-] [Sodium metavanadate]
Key: 432

Exercise: Next record, please: [Cl][Pt]([Cl])([Cl])[Cl] [platinum (IV) chloride]
Key: 17.5

Exercise: Next record, please: O=S([O-])[O-].[Na+].[Na+] [sodium sulfite]
Key: 391

----------
# Tested on: Pseudomonas fluorescens FW300-N2E2
# measurementContext: medium / electron acceptor: N2E2 R2A/aerobic
observationType: IC50 growth inhibition (µM)
Give your result in µM as a bare value.

{"compound": "[Cl][Pb][Cl] [lead (II) chloride]", "outputUnit": "µM", "IC50 growth inhibition": 140}
{"compound": "O=[Se](=O)([O-])[O-].[Na+].[Na+] [Sodium selenate]", "outputUnit": "µM", "IC50 growth inhibition": 62500}
{"compound": "[Na+].[Na+].[O]=[Mo](=[O])([O-])[O-] [Sodium molybdate]", "outputUnit": "µM", "IC50 growth inhibition": 231000}

Exercise: Given the entry [Cl][Pt]([Cl])([Cl])[Cl] [platinum (IV) chloride] , report its measured IC50 growth inhibition.
Key: 86.1

----------
# Tested on: Pseudomonas fluorescens FW300-N2E2
# measurementContext: medium / electron acceptor: N2E2 Glucose/aerobic (2)
observationType: IC50 growth inhibition (µM)
Give your result in µM as a bare value.

// known answers, use as guide
{"compound": "O.O.O.O.O.O.[Cl][Ni][Cl] [Nickel (II) chloride hexahydrate]", "targetUnderTest": "Pseudomonas fluorescens FW300-N2E2", "outputUnit": "µM", "IC50 growth inhibition": 14.3}
{"compound": "O.O.[Ba+2].[Cl-].[Cl-] [Barium chloride dihydrate]", "targetUnderTest": "Pseudomonas fluorescens FW300-N2E2", "outputUnit": "µM", "IC50 growth inhibition": 2840}
{"compound": "O.O.O.O.O=S(=O)([O-])[O-].[Be+2] [beryllium sulfate tetrahydrate]", "targetUnderTest": "Pseudomonas fluorescens FW300-N2E2", "outputUnit": "µM", "IC50 growth inhibition": 1550}

Now look at this one.
Exercise: Lab note: need IC50 growth inhibition for O.O.O.O.[Cl][Mn][Cl] [Manganese (II) chloride tetrahydrate] on Pseudomonas fluorescens FW300-N2E2, anyone have it?
Key: 1570

----------
# Test system: Pseudomonas fluorescens FW300-N2E2
# measurementContext: medium / electron acceptor: N2E2 LB/aerobic
Reported log10 of IC50 growth inhibition values are given for each entry in this list.
Transform log10 | Measure IC50 growth inhibition | Unit mM

// known answers, use as guide
{"compound": "[O-][I+2]([O-])O [sodium iodate]", "numericReadout": 0.93}
{"compound": "[Cl-].[Cl-].[Sr+2] [Strontium chloride]", "numericReadout": 1.44}

Exercise: Given the entry [Ca+2].[Cl-].[Cl-] [Calcium chloride dihydrate] , report its measured log10 of IC50 growth inhibition.
Key: 2.49

Exercise: Next record, please: O.[Cl-].[Li+] [Lithium chloride hydrate]
Key: 2.55

Exercise: Next record, please: O=P(O)(O)OP(=O)(O)O [Sodium pyrophosphate dibasic]
Key: 1.56

----------
# Test system: Pseudomonas fluorescens FW300-N2E2
# measurementContext: medium / electron acceptor: N2E2 R2A/aerobic
observationType: IC50 growth inhibition (mM)
Give your result in mM as a bare value.

{"compound": "[Na+].[O]=[V](=[O])[O-] [Sodium metavanadate]", "targetUnderTest": "Pseudomonas fluorescens FW300-N2E2", "outputUnit": "mM", "IC50 growth inhibition": 8.62}
{"compound": "[O-][Cl+2]([O-])O [Sodium Chlorate]", "targetUnderTest": "Pseudomonas fluorescens FW300-N2E2", "outputUnit": "mM", "IC50 growth inhibition": 45.9}
{"compound": "[Cl][Pd][Cl] [Palladium(II) chloride]", "targetUnderTest": "Pseudomonas fluorescens FW300-N2E2", "outputUnit": "mM", "IC50 growth inhibition": 0.249}
{"compound": "[Cl-].[Cl-].[Zn+2] [Zinc chloride]", "targetUnderTest": "Pseudomonas fluorescens FW300-N2E2", "outputUnit": "mM", "IC50 growth inhibition": 0.0704}

Exercise: Given the entry OP(O)O [Sodium phosphite dibasic pentahydrate] , report its measured IC50 growth inhibition.
Key: 309

----------
# System: Rhodanobacter sp. FW104-10B01
# measurementContext: medium / electron acceptor: 10B01 R2A/aerobic
observationType: IC50 growth inhibition (mM)
Give your result in mM as a bare value.

Exercise: Lab note: need IC50 growth inhibition for O.O.O.O.O.O.[Cl-].[Cl-].[Mg+2] [Magnesium chloride hexahydrate] on Rhodanobacter sp. FW104-10B01, anyone have it?
Key: 218

Exercise: Next record, please: O=P[O-].[Na+] [Sodium hypophosphite monohydrate]
Key: 354

Exercise: Next record, please: [Cl-].[Na+] [Sodium Chloride]
Key: 708

Exercise: Next record, please: [Cl][Ga]([Cl])[Cl] [Gallium(III)chloride]
Key: 1

Exercise: Next record, please: O=P(O)(O)OP(=O)(O)O [Sodium pyrophosphate dibasic]
Key: 8.54

----------
# Tested on: Pseudomonas fluorescens FW300-N2E2
# measurementContext: medium / electron acceptor: N2E2 Glucose/aerobic
Reported IC50 growth inhibition values are given for each entry in this list.

// known answers, use as guide
{"compound": "[Cl-].[K+] [Potassium Chloride]", "targetUnderTest": "Pseudomonas fluorescens FW300-N2E2", "observationType": "IC50 growth inhibition", "result": "> 500 mM"}
{"compound": "O=S(O)(O)=S [Sodium thiosulfate]", "targetUnderTest": "Pseudomonas fluorescens FW300-N2E2", "observationType": "IC50 growth inhibition", "result": "318 mM"}
{"compound": "O=[Si](O)O [Sodium metasilicate]", "targetUnderTest": "Pseudomonas fluorescens FW300-N2E2", "observationType": "IC50 growth inhibition", "result": "< 0.244 mM"}
{"compound": "[O-][Cl+2]([O-])O [Sodium Chlorate]", "targetUnderTest": "Pseudomonas fluorescens FW300-N2E2", "observationType": "IC50 growth inhibition", "result": "9.21 mM"}
{"compound": "[Ce+3].[Cl-].[Cl-].[Cl-] [Cerium(III) chloride]", "targetUnderTest": "Pseudomonas fluorescens FW300-N2E2", "observationType": "IC50 growth inhibition", "result": "< 0.244 mM"}

Exercise: Given the entry O.O.O.O.[Cl][Mn][Cl] [Manganese (II) chloride tetrahydrate] , report its measured IC50 growth inhibition.
Key: > 5 mM

----------
# Tested on: Rhodanobacter sp. FW104-10B01
# measurementContext: medium / electron acceptor: 10B01 R2A/aerobic
observationType: IC50 growth inhibition (mM)
Give your result in mM as a bare value.

// known answers, use as guide
{"compound": "[Cl-].[Rb+] [rubidium chloride]", "outputUnit": "mM", "IC50 growth inhibition": 354}
{"compound": "[O-][I+2]([O-])O [sodium iodate]", "outputUnit": "mM", "IC50 growth inhibition": 35.4}
{"compound": "[O-][I+3]([O-])([O-])O [Sodium periodate]", "outputUnit": "mM", "IC50 growth inhibition": 0.101}

Exercise: Given the entry O.O.O.O.O.O.[Cl-].[Cl-].[Co+2] [Cobalt chloride hexahydrate] , report its measured IC50 growth inhibition.
Key: 0.592

----------
Reported log10 IC50 growth inhibition values are given for each entry in this list.
# System: Pseudomonas fluorescens FW300-N2E2
# measurementContext: medium / electron acceptor: N2E2 Glucose/aerobic
Transform log10 | Measure IC50 growth inhibition | Unit mM

// known answers, use as guide
{"compound": "[Cl-].[Rb+] [rubidium chloride]", "numericReadout": 1.24}
{"compound": "O.O.O.O.O=S(=O)([O-])[O-].[Be+2] [beryllium sulfate tetrahydrate]", "numericReadout": 0.19}
{"compound": "O.O.O.O.O.O.O.O.O.O.O=S(=O)([O-])[O-].[Na+].[Na+] [Sodium sulfate]", "numericReadout": 2.55}
{"compound": "O.O.[Cl][Cu][Cl] [copper (II) chloride dihydrate]", "numericReadout": -1.12}
{"compound": "[O-][I+3]([O-])([O-])O [Sodium periodate]", "numericReadout": 0.74}

Exercise: Given the entry O.O.O.O.O.O.[Cl][Ni][Cl] [Nickel (II) chloride hexahydrate] , report its measured log10 IC50 growth inhibition.
Key: -1.95

Exercise: Next record, please: [Br-].[Na+] [sodium bromide]
Key: 2.55

Exercise: Next record, please: O=P([O-])(O)O.[Na+] [Sodium phosphate monobasic monohydrate]
Key: 1.70

Exercise: Next record, please: O=S([O-])[O-].[Na+].[Na+] [sodium sulfite]
Key: -0.58

Exercise: Next record, please: O.O.O.O.O.O.[Cl-].[Cl-].[Mg+2] [Magnesium chloride hexahydrate]
Key: 2.44
